Each item that follows carries a reported Kd.
system under test: T1, recombinant human CD47 extracellular domain (ECD), His-tagged, monomer (human, UniProt Q08722 19-141)
T1 construct: C-terminal 6xHis tag; monomeric fraction from Superdex 200; also called human CD47 ECD; CD47-ECD monomer
test method notes: ProteOn SPR; mAb captured, ECD monomer as analyte
Quick reminder: number only, in nM, skip the unit.

Illustrative cases are given below, each with its answer.
binder: C47B161 (human IgG2sigma) (antibody, V domains shown, HFA variant of C47B116; human IgG2sigma/kappa; also called IgG2 Fc-silent C47B161) VH: QVQLVQSGAEVKKPGASVKVSCKASGYTFTDYNMHWVRQAPGQRLEWMGDIYPYNGGTGYNQKFKGRVTITRDTSASTAYMELSSLRSEDTAVYYCARGGWHAMDSWGQGTLVTVSS VL: DIVMTQSPLSLPVTPGEPASISCRSRQSIVHTNRYTYLAWYLQKPGQSPQLLIYKVSNRFSGVPDRFSGSGSGTDFTLKISRVEAEDVGVYYCFQGSHVPYTFGGGTKLEIK
Kd, nM: 2.87
//
binder: C47B151 (antibody, V domains shown, HFA variant of C47B116; human IgG2sigma/kappa) VH: QVQLVQSGAEVKKPGSSVKVSCKASGYTFTDYNMHWVRQAPGQGLEWMGDIYPYNGGTGYNQKFKGRVTITADESTSTAYMELSSLRSEDTAVYYCARGGWHAMDSWGQGTLVTVSS VL: DIVMTQSPDSLAVSLGERATINCRSRQSIVHTNRYTYLAWYQQKPGQPPKLLIYKVSNRFSGVPDRFSGSGSGTDFTLTISSLQAEDVAVYYCFQGSHVPYTFGGGTKLEIK
Kd, nM: 6.89
//
binder: C47B157 (human IgG2sigma) (antibody, V domains shown, HFA variant of C47B116; human IgG2sigma/kappa; also called IgG2 Fc-silent C47B157) VH: QVQLVQSGAEVKKPGASVKVSCKASGYTFTDYNMHWVRQAPGQGLEWMGDIYPYNGGTGYNQKFKGRVTMTRDTSTSTVYMELSSLRSEDTAVYYCARGGWHAMDSWGQGTLVTVSS VL: DIVMTQSPLSLPVTPGEPASISCRSRQSIVHTNRYTYLAWYLQKPGQSPQLLIYKVSNRFSGVPDRFSGSGSGTDFTLKISRVEAEDVGVYYCFQGSHVPYTFGGGTKLEIK
Kd, nM: 3.53

Query string: Given the entry C47B116 (antibody, human IgG2, V domains shown, hybridoma-derived, chimeric human IgG2 Fc-silent/human kappa; also called parent hybridoma mAb C47B116) VH: EVQLQQSGPELVKPGASVKISCKASGYTFTDYNMHWVKQSHGKSLEWIGDIYPYNGGTGYNQKFKSKATLTVDNSSSTAYMELRSLTSEDSAVYYCARGGWHAMDSWGQGTSVTVSS VL: DVVMTQTPLSLPVSLGDQASISCRSRQSIVHTNRYTYLAWYLQKPGQSPKLLIYKVSNRFSGVPDRFSGSGSGTDFTLKISRVEAEDLGVYYCFQGSHVPYTFGGGTKLEIK , report its measured Kd.
Result string: 1.02
